- measurement target: HLA-A*0301 (human)
- experiment summary: competition with 125I-labelled standard peptide for purified HLA-A*0301, gel filtration
quantity measured: binding affinity ratio (IC50 of standard peptide / IC50 of test peptide)

The cases that follow already have their binding affinity ratio (IC50 of standard peptide / IC50 of test peptide) on record.
binder	value observed
SLLSLYGIH (modifications not checked) [… (PAP, position 242)]	0.0006
EMKTYSVSF (modifications not checked) [PSM 621 peptide …]	0.0005

[I] ETYELVEKFY (modifications not checked) [PSM 557 peptide …]
[II] FSERLQDFDK (modifications not checked) [PSM 646 peptide …]
[III] SLYESWTKK (modifications not checked) [… (PSM, position 492)]
Task: # ascending order, key=binding affinity ratio (IC50 of standard peptide / IC50 of test peptide) A complete answer lists every label in the requested sequence.
Output: II, I, III
(II: 0.0003, I: 0.0006, III: 1)
